protocol_notes: Intravenous/oral pharmacokinetics and tissue distribution in mice
Type: in vivo
condition_parameters: female, ICR, mouse, plasma, po, 10 mg/kg p.o., read-out: T½ (converted)
measured_property: half-life (min)
Give bare numbers, in min.

q: Tell me measured half-life for O=C(N[C@@H](Cc1ccccn1)C(=O)N[C@@H](CCc1ccccc1)B(O)O)c1cnccn1 please.
a: 234

* * *

measured_target: Caspase 1 (Homo sapiens, UniProt P29466)
Construct: Reaction Biology Corporation (contract testing)
Sequence (P29466 120-404): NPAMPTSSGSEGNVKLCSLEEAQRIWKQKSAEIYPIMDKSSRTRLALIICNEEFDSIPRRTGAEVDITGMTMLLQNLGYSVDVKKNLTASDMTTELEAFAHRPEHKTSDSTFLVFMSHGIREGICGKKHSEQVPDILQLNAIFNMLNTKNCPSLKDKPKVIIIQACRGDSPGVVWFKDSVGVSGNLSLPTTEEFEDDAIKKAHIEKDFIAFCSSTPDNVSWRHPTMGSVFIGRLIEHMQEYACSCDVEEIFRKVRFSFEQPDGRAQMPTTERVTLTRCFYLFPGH
protocol_notes: Protease panel: Caspase 1
Assay type: biochemical
condition_parameters: supplement panel table, test and control compound
Residues, ends and D or L forms follow the SMILES beside them.
measured_property: IC50
Please format your answer as a value with the unit trailing.

q: Tell me measured IC50 for CC[C@H](C)[C@H](NC(C)=O)C(=O)N[C@@H](CCC(=O)O)C(=O)N[C@H](C(=O)N[C@H](C=O)CC(=O)O)[C@@H](C)O [IETD-CHO] (Ac-IETD-aldehyde) please.
a: 0.0545 µM

* * *

protocol_notes: Plasma protein binding, human
Type: in vitro ADME
condition_parameters: bound, read-out: Plasma protein binding in humans (%) (converted)
measured_property: fraction unbound
One number for each entry.

q: Tell me measured fraction unbound for O=C(N[C@@H](Cc1ccccn1)C(=O)N[C@@H](CCc1ccccc1)B(O)O)c1cnccn1 [Compound 58] please.
a: 0.109

* * *

protocol_notes: Intravenous/oral pharmacokinetics and tissue distribution in mice
Format: in vivo
condition_parameters: female, ICR, mouse, po, 100 mg/kg p.o., lung, Fig. 10B, read-out: AUC0-t(last), Lung
measured_property: AUC(0-t) (ng·h/mL)
Answers are plain numbers, in ng·h/mL.

q: Tell me measured AUC(0-t) for O=C(N[C@@H](Cc1ccccn1)C(=O)N[C@@H](CCc1ccccc1)B(O)O)c1cnccn1 please.
a: 16300

* * *

measured_target: Caspase 2 (Homo sapiens)
Construct: Reaction Biology Corporation (contract testing)
Sequence (P42575 whole entry, species assumed): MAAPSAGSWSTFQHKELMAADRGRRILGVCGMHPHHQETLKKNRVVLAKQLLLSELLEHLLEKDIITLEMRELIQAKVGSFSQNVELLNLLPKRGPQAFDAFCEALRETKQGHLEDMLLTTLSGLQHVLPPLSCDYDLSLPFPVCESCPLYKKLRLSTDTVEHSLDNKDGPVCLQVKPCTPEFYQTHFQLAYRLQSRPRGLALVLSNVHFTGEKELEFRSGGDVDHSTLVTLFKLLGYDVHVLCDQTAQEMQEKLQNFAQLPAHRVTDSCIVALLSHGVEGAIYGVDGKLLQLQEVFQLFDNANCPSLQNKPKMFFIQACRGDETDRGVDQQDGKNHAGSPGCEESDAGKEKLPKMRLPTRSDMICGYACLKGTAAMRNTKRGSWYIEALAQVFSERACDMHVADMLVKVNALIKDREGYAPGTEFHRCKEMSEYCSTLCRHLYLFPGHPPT
protocol_notes: Protease panel: Caspase 2
Format: biochemical
condition_parameters: supplement panel table, test and control compound
Residues, ends and D or L forms follow the SMILES beside them.
measured_property: IC50 (µM)
Answers are plain numbers, in µM.

q: Name the recorded IC50 of CC[C@H](C)[C@H](NC(C)=O)C(=O)N[C@@H](CCC(=O)O)C(=O)N[C@H](C(=O)N[C@H](C=O)CC(=O)O)[C@@H](C)O [IETD-CHO] (Ac-IETD-aldehyde) , assay system Caspase 2 (Homo sapiens).
a: 0.626

* * *

measured_target: UniProt P06870
Sequence (P06870 25-262, species assumed): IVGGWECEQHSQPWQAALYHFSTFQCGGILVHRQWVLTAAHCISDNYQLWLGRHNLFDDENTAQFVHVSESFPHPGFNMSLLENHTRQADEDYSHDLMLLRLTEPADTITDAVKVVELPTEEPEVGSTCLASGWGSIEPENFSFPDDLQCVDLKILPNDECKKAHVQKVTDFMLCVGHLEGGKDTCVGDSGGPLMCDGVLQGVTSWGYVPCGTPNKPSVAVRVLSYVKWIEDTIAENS
protocol_notes: Protease panel: Kallikrein 1
Type: biochemical
condition_parameters: Table 6; 10-dose response, top 10 μM
measured_property: IC50
Please format your answer as a value with the unit trailing.

q: Tell me measured IC50 for O=C(N[C@@H](Cc1ccccn1)C(=O)N[C@@H](CCc1ccccc1)B(O)O)c1cnccn1 please.
a: 6.03 µM

* * *

measured_target: HepG2 proteasome (Homo sapiens, UniProt P20618+P28074)
protocol_notes: Cell-based proteasome CT-like peptidase inhibition assay (Proteasome-Glo)
Please go through the items and note down their pIC50.
One number for each entry, as −log10 of the molar value.

// known answers, use as guide
compound: O=C(N[C@@H](Cc1ccccc1)C(=O)N[C@@H](CCc1ccccc1)B(O)O)c1ccc(C(F)(F)F)cc1
obs_value: 7.00

compound: O=C(N[C@@H](Cc1ccccc1)C(=O)N[C@@H](CCC1CCCCC1)B(O)O)c1cccc2ncsc12
obs_value: 6.54

compound: CC(=O)N[C@@H](Cc1ccccc1)C(=O)N[C@@H](Cc1ccccc1)B(O)O
obs_value: 6.66

compound: CC(C)C[C@H](NC(=O)[C@H](Cc1ccccc1)NC(=O)[C@H](Cc1ccccc1)NC(=O)c1cnccn1)B(O)O
obs_value: 8.22

compound: CC(C)C[C@H](NC(=O)[C@H](C)NC(=O)c1cnccn1)B(O)O
obs_value: 6.65

Hello, I would appreciate it if you could give pIC50 for each entry below.
1. CC(C)C[C@H](NC(=O)[C@H](Cc1ccccc1)NC(=O)N1CCCCC1)B(O)O
2. O=C(N[C@@H](Cc1ccccc1)C(=O)N[C@H](B(O)O)C1CCCCC1)c1cnccn1
3. O=C(N[C@@H](Cc1ccccc1)C(=O)N[C@@H](CCc1ccccc1)B(O)O)c1cnc(-c2ccccc2)nc1
4. CC(C)C[C@H](NC(=O)[C@H](Cc1ccccc1)NC(=O)c1cccc2ncsc12)B(O)O
5. CC(C)C[C@H](NC(=O)[C@H](Cc1ccccc1)NC(=O)c1ncc(-c2ccccc2)o1)B(O)O (mixture of isomers)
6. CC(=O)N[C@@H](Cc1ccccc1)C(=O)N[C@@H](CC(C)C)B(O)O
7. O=C(N[C@@H](Cc1ccccc1)C(=O)N[C@@H](CCc1ccccc1)B(O)O)c1ccccc1F
8. CC(C)C[C@H](NC(=O)[C@H](Cc1ccccc1)NC(=O)c1cc(-c2ccccc2)ncn1)B(O)O

a:
1. 7.64
2. 6.81
3. 7.22
4. 8.22
5. 8.22
6. 8.00
7. 6.70
8. 8.22

Hello, I would appreciate it if you could give pIC50 for each entry below.
1. CC(C)C[C@H](NC(=O)[C@H](Cc1ccccc1)NC(=O)c1ccccc1)B(O)O
2. O=C(N[C@@H](Cc1ccccc1)C(=O)N[C@@H](CCc1ccccc1)B(O)O)c1ccccc1

a:
1. 8.22
2. 6.78

* * *

protocol_notes: Intravenous/oral pharmacokinetics and tissue distribution in mice
Type: in vivo
condition_parameters: female, ICR, mouse, plasma, lung, brain, po, 100 mg/kg p.o., read-out: Tmax (converted)
Method: Female ICR mice (aged ∼6 to ∼8 weeks; 3 animals per time point) were used for all studies. Studies were performed as per approved internal protocols for animal care and use. Doses were administered as clear solutions in 50% polyethylene glycol 400 (PEG400) plus 50% dextrose and 5% water (D5W). […] Plasma samples were processed and analyzed by LC-tandem MS. […]
measured_property: Tmax (min)
Numbers only, in min.

q: Tell me measured Tmax for O=C(N[C@@H](Cc1ccccn1)C(=O)N[C@@H](CCc1ccccc1)B(O)O)c1cnccn1 please.
a: 10

* * *

protocol_notes: Intravenous/oral pharmacokinetics and tissue distribution in mice
Type: in vivo
condition_parameters: female, ICR, mouse, po, 10 mg/kg p.o., plasma, read-out: Cmax
measured_property: Cmax (ng/mL)
Answers are plain numbers, in ng/mL.

q: Tell me measured Cmax for O=C(N[C@@H](Cc1ccccn1)C(=O)N[C@@H](CCc1ccccc1)B(O)O)c1cnccn1 please.
a: 798

* * *

measured_target: Caspase 8 (Homo sapiens)
Construct: Reaction Biology Corporation (contract testing)
Sequence (Q14790 217-479, species assumed): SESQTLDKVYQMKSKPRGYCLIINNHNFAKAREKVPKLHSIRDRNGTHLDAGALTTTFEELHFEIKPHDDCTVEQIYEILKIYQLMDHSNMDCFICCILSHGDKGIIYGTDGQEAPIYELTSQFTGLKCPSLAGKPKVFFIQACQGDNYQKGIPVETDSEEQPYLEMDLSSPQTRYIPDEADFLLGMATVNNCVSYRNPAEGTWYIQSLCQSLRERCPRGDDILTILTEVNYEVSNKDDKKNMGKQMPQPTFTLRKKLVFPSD
protocol_notes: Protease panel: Caspase 8
Assay type: biochemical
condition_parameters: supplement panel table, test and control compound
Residues, ends and D or L forms follow the SMILES beside them.
measured_property: IC50 (µM)
One number for each entry, in µM.

q: Tell me measured IC50 for CC[C@H](C)[C@H](NC(C)=O)C(=O)N[C@@H](CCC(=O)O)C(=O)N[C@H](C(=O)N[C@H](C=O)CC(=O)O)[C@@H](C)O [IETD-CHO] (Ac-IETD-aldehyde) please.
a: 0.00166

* * *

measured_target: ClpP1P2 (Mycolicibacterium smegmatis, UniProt A0R197+A0R198)
Sequence (A0R198 4-203): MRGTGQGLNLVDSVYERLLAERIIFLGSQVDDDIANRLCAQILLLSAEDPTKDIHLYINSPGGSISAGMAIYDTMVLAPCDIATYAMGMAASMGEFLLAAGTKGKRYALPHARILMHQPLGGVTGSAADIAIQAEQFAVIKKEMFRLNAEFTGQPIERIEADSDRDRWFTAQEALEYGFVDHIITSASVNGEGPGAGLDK
Sequence (A0R197 17-218): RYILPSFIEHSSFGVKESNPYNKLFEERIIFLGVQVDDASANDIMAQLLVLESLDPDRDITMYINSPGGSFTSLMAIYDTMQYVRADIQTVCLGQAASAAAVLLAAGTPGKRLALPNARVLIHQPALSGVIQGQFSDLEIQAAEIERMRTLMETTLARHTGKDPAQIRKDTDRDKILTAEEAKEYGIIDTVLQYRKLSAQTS
protocol_notes: ClpP1P2 inhibition whole-cell RFP-SsrA reporter assay
condition_parameters: read-out: M. smegmatis ΔprcAB IC50 (μM) for ClpP1P2; whole-cell RFP-SsrA reporter, 3 h incubation
measured_property: IC50
Please format your answer as a value with the unit trailing.

q: Tell me measured IC50 for CC(C)C[C@H](NC(=O)[C@H](Cc1ccccc1)NC(=O)c1cnccn1)B(O)O [Compound 1, bortezomib, reference compound] please.
a: 6 µM

* * *

measured_target: Kallikrein 5 (Homo sapiens, UniProt Q9Y337)
Sequence (Q9Y337 23-293): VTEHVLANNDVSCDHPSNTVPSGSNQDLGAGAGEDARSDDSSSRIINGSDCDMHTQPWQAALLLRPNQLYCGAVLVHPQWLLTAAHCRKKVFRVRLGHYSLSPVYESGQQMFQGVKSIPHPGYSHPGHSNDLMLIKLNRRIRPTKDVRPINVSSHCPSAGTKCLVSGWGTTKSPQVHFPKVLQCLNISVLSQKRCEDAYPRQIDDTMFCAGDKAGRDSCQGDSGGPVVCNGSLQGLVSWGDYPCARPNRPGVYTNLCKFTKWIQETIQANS
protocol_notes: Protease panel: Kallikrein 5
Format: biochemical
condition_parameters: supplement panel table, test and control compound
Structures can show the parent of a compound that is named as a salt.
measured_property: IC50 (µM)
Numbers only, in µM.

q: Tell me measured IC50 for CCOC(=O)c1ccc(OC(=O)CCCCCN=C(N)N)cc1 [Gabexate mesylate (GM), Gabexate mesylate] please.
a: 8.06
